B1: mRNA-splicing (parent)
chain: GAUCCAGAUCUAACUUGGGGUGGCUUUGUCUUCUUCUUUUGCCAAUUCCACUAAUUGUUUGGG

- Variants of: B1
- Measurement protocol: exon inclusion enrichment score (log2 ratio to wild type); higher = more inclusion; FAS exon 6 minigene, HEK293
Metric name: exon inclusion enrichment score

• G28U = -1.36
• C4G = -0.794
• C42U = -1.2
• G23C = -0.164
• A45G = -0.008
